# log10(EC50) values compiled below
# Tested on: HBV
# runDescription: HBV inhibitory activity in HepG2.2.15 cells (HBV DNA in culture medium by q-PCR)
# Type: cell-based
# testParameters: HepG2.2.15 cells, 40,000 cells/well, 6 days of compound treatment, HBV DNA in culture medium by q-PCR, highest concentration 10 uM; read-out: EC50
experimentalEndpoint: log10(EC50) (log10 of the value in nM)

{"columns": ["molecule", "recordedNumber"],
 "data": [
  ["CCOC(=O)C1=C(C2CCc3nn(CCC(=O)O)cc3C2)NC(c2ncc(F)cc2F)=NC1c1ccc(F)c(F)c1Cl (single isomer, unassigned) [Compound 43c]", 0.77],
  ["CCOC(=O)C1=C(C2CCc3nn(CCC(=O)O)cc3C2)NC(c2nccs2)=NC1c1ccc(F)c(F)c1Cl (single isomer, unassigned) [Compound 34d]", 2.16],
  ["CCOC(=O)C1=C(C2CCc3nn(CCCC(=O)O)cc3C2)NC(c2nccs2)=NC1c1ccc(F)c(F)c1Cl (single isomer, unassigned) [Compound 50b]", 2.06],
  ["CCOC(=O)C1=C(C2CCc3nn(CCC(=O)O)cc3C2)NC(c2nccs2)=NC1c1ccc(F)cc1Cl (single isomer, unassigned) [Compound 37d]", 2.94],
  ["CCOC(=O)C1=C(C2CCc3nn(CCC(=O)O)cc3C2)NC(c2nccs2)=NC1c1ccc(F)c(F)c1Cl (single isomer, unassigned) [Compound 34a]", 2.59],
  ["CCOC(=O)C1=C(C2CCc3nn(CCC(=O)O)cc3C2)NC(c2ncc(F)cc2F)=NC1c1ccc(F)c(F)c1Cl (single isomer, unassigned) [Compound 43b]", 2.10],
  ["CCOC(=O)C1=C(C2CCc3nn(CCC(=O)O)cc3C2)NC(c2nccs2)=NC1c1cccc(F)c1Cl (single isomer, unassigned) [Compound 40c]", 1.52],
  ["COC(=O)C1=C(C2CCc3nn(CCC(=O)O)cc3C2)NC(c2nccs2)=NC1c1ccc(F)cc1Br (single isomer, unassigned) [Compound 48b]", 2.78],
  ["CCOC(=O)C1=C(C2CCc3nn(CCC(=O)O)cc3C2)NC(c2nccs2)=NC1c1ccc(F)cc1Cl (single isomer, unassigned) [Compound 37b]", 2.24],
  ["CCOC(=O)C1=C(C2CCc3nn(C(C)CC(=O)O)cc3C2)NC(c2nccs2)=NC1c1ccc(F)c(F)c1Cl (single isomer, unassigned) [Compound 51c]", 0.99],
  ["COC(=O)C1=C(C2CCc3nn(CCC(=O)O)cc3C2)NC(c2nccs2)=NC1c1cccc(F)c1Cl (single isomer, unassigned) [Compound 44b]", 2.58],
  ["CCOC(=O)C1=C(C2CCc3nn(CCC(=O)O)cc3C2)NC(c2nccs2)=NC1c1ccc(F)cc1C (single isomer, unassigned) [Compound 38a]", 1.16],
  ["CCOC(=O)C1=C(C2CCc3oc(CCC(=O)O)nc3C2)NC(c2nccs2)=NC1c1ccc(F)c(F)c1Cl (single isomer, unassigned) [Compound 57f]", 1.96],
  ["COC(=O)C1=C(C2CCc3nn(C(C)(C)CC(=O)O)cc3C2)NC(c2nccs2)=NC1c1ccc(F)c(F)c1Cl (single isomer, unassigned) [Compound 82b]", 1.94],
  ["CCOC(=O)C1=C(C2CCc3nn(CCC(=O)O)cc3C2)NC(c2nccs2)=NC1c1ccc(F)c(F)c1C (single isomer, unassigned) [Compound 35b]", 1.98],
  ["CCOC(=O)C1=C(C2CCc3oc(CCC(=O)O)nc3C2)NC(c2nccs2)=NC1c1ccc(F)c(F)c1Cl (single isomer, unassigned) [Compound 57c]", 1.10],
  ["CCOC(=O)C1=C(C2CCc3nn(CC(C)(C)C(=O)O)cc3C2)NC(c2nccs2)=NC1c1ccc(F)c(F)c1Cl (single isomer, unassigned) [Compound 53a]", 2.12],
  ["CCOC(=O)C1=C(C2Cc3cn(CCC(=O)O)nc3C(C)(C)C2)NC(c2nccs2)=NC1c1ccc(F)c(F)c1Cl (centres unmarked) [Compound 55a]", 1.91],
  ["CCOC(=O)C1=C(C2CCc3nn(CC(C)(C)C(=O)O)cc3C2)NC(c2nccs2)=NC1c1ccc(F)c(F)c1Cl (single isomer, unassigned) [Compound 53b]", 2.02],
  ["CCOC(=O)C1=C(C2CCc3cn(CCC(=O)O)nc3C2)NC(c2nccs2)=NC1c1ccc(F)c(F)c1Cl (single isomer, unassigned) [Compound 61c]", 2.10],
  ["COC(=O)C1=C(C2CCc3nn(CCCC(=O)O)cc3C2)NC(c2nccs2)=NC1c1ccc(F)c(F)c1Cl (single isomer, unassigned) [Compound 74c]", 0.96],
  ["COC(=O)C1=C(C2CCc3nn(CCC(=O)O)cc3C2)NC(c2nccs2)=NC1c1cccc(F)c1Br (single isomer, unassigned) [Compound 45c]", 1.67],
  ["COC(=O)C1=C(C2CCc3nn(CCC(=O)O)cc3C2)NC(c2nccs2)=NC1c1ccc(F)cc1Cl (single isomer, unassigned) [Compound 47b]", 2.67]
]}

---

# Test system: HepG2.2.15 cells
# runDescription: Cytotoxicity determination in HepG2.2.15 cells (CCK-8)
# Format: cell-based
# testParameters: HepG2.2.15 cells, 5,000 cells/well, 6 days of compound treatment, CCK-8 absorbance 450 nm, highest concentration 100 uM
Measured CC50 of individual entries

{"columns": ["compound", "quantityUnit", "CC50"],
 "data": [
  ["CCOC(=O)C1=C(C2CCc3nn(CCC(=O)O)cc3C2)NC(c2nccs2)=NC1c1ccc(F)cc1C (single isomer, unassigned) [Compound 38b]", "µM", 22.9],
  ["CCOC(=O)C1=C(C2CCc3nn(CCC(=O)O)cc3C2)NC(c2nccs2)=NC1c1ccc(F)c(F)c1Cl (single isomer, unassigned) [Compound 34d]", "µM", 20.6],
  ["CCOC(=O)C1=C(C2CCc3nn(CCC(=O)O)cc3C2)NC(c2nccs2)=NC1c1ccc(F)c(F)c1Cl (single isomer, unassigned) [Compound 34c]", "µM", 14.9],
  ["CCOC(=O)C1=C(C2CCc3cn(CCC(=O)O)nc3C2)NC(c2nccs2)=NC1c1ccc(F)c(F)c1Cl (single isomer, unassigned) [Compound 61c]", "µM", 29],
  ["COC(=O)C1=C(C2CCc3nn(CCC(=O)O)cc3C2)NC(c2nccs2)=NC1c1cccc(F)c1Br (single isomer, unassigned) [Compound 45c]", "µM", 32.2],
  ["COC(=O)C1=C(C2CCc3nn(CCC(=O)O)cc3C2)NC(c2nccs2)=NC1c1ccc(F)c(F)c1Br (single isomer, unassigned) [Compound 46d]", "µM", 10.7],
  ["CCOC(=O)C1=C(C2CCc3nn(CCC(=O)O)cc3C2)NC(c2nccs2)=NC1c1ccc(F)cc1Cl (single isomer, unassigned) [Compound 37c]", "µM", 21.1],
  ["COC(=O)C1=C(C2CCc3nn(CCC(=O)O)cc3C2)NC(c2nccs2)=NC1c1cccc(F)c1Cl (single isomer, unassigned) [Compound 44c]", "µM", 36.7],
  ["COC(=O)C1=C(C2CCc3nc([C@H]4C[C@H](C(=O)O)C4)sc3C2)NC(c2nccs2)=NC1c1ccc(F)c(F)c1Cl (single isomer, unassigned) [Compound 68b]", "µM", 8.3],
  ["COC(=O)C1=C(C2CCc3nc([C@H]4C[C@H](C(=O)O)C4)oc3C2)NC(c2nccs2)=NC1c1ccc(F)c(F)c1Cl (single isomer, unassigned) [Compound 72c]", "µM", 8.7],
  ["COC(=O)C1=C(C2CCc3nn(C(C)(C)CC(=O)O)cc3C2)NC(c2nccs2)=NC1c1ccc(F)c(F)c1Cl (single isomer, unassigned) [Compound 82c]", "µM", 15.1],
  ["CCOC(=O)C1=C(C2CCc3nn(CCC(=O)O)cc3C2)NC(c2ncc(F)cc2F)=NC1c1ccc(F)c(F)c1Cl (single isomer, unassigned) [Compound 43c]", "µM", 29.9]
]}

---

# runDescription: Cytotoxicity determination in HepG2.2.15 cells (CCK-8)
# Assay type: cell-based
# testParameters: human, HepG2.2.15 cells, HepG2.2.15 cells, 5,000 cells/well, 6 days of compound treatment, CCK-8 absorbance 450 nm, highest concentration 100 uM
So basically every entry gets a class from its CC50 at 6 days, ranges being bin 0: < 8 µM; bin 1: ≥ 8 µM and < 20 µM; bin 2: ≥ 20 µM

{"columns": ["compound", "labelClass"],
 "data": [
  ["CCOC(=O)C1=C(C2CCc3nn(CCC(=O)O)cc3C2)NC(c2ncc(F)cc2F)=NC1c1ccc(F)c(F)c1Cl (single isomer, unassigned) [Compound 43b]", "bin 2"],
  ["CCOC(=O)C1=C(C2CCc3nn(CC(C)(C)C(=O)O)cc3C2)NC(c2nccs2)=NC1c1ccc(F)c(F)c1C (stereo not drawn) [Compound 92c]", "bin 1"],
  ["CCOC(=O)C1=C(C2CCc3nn(CCC(=O)O)cc3C2)NC(c2nccs2)=NC1c1ccc(F)cc1C (single isomer, unassigned) [Compound 38a]", "bin 2"],
  ["COC(=O)C1=C(C2CCc3nc([C@H]4C[C@H](C(=O)O)C4)oc3C2)NC(c2nccs2)=NC1c1ccc(F)c(F)c1Cl (single isomer, unassigned) [Compound 72b]", "bin 0"],
  ["CCOC(=O)C1=C(C2CCc3nn(CCC(=O)O)cc3C2)NC(c2nccs2)=NC1c1ccc(F)c(F)c1Cl (single isomer, unassigned) [Compound 34a]", "bin 2"],
  ["COC(=O)C1=C(C2CCc3nn(CCC(C)(C)C(=O)O)cc3C2)NC(c2nccs2)=NC1c1ccc(F)c(F)c1Cl (stereo not drawn) [Compound 90c]", "bin 1"],
  ["CCOC(=O)C1=C(C2CCc3nn(CCC(C)(C)C(=O)O)cc3C2)NC(c2nccs2)=NC1c1ccc(F)c(F)c1Cl (stereo not drawn) [Compound 88d]", "bin 1"],
  ["CCOC(=O)C1=C(C2CCc3nn(C(C)CC(=O)O)cc3C2)NC(c2nccs2)=NC1c1ccc(F)c(F)c1Cl (single isomer, unassigned) [Compound 51b]", "bin 0"],
  ["CCOC(=O)C1=C(C2CCc3nn(CC(C)(C)C(=O)O)cc3C2)NC(c2nccs2)=NC1c1ccc(F)c(F)c1Cl (single isomer, unassigned) [Compound 53a]", "bin 0"],
  ["CCOC(=O)C1=C(C2CCc3[nH]ncc3C2)NC(c2nccs2)=NC1c1ccc(F)c(F)c1Cl (stereo not drawn)", "bin 0"],
  ["COC(=O)C1=C(C2CCc3nn(CCC(=O)O)cc3C2)NC(c2nccs2)=NC1c1ccc(F)c(F)c1Br (single isomer, unassigned) [Compound 46a]", "bin 1"]
]}
